Readings of inhibition for the listed molecules
# System tested: Rac GTPase-activating protein 1 (Homo sapiens)
# Protocol details: blockers of MgcRacGAP-driven Rac1 GTP hydrolysis – biochemical, ADP Hunter fluorescence, primary and confirmatory, confirmation (AID 624330);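 also: fluorescence reports GDP produced by GAP-driven GTP hydrolysis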
# Condition summary: MgcRacGAP-stimulated Rac1 GTP hydrolysis, at 30 µM, stronger effect = higher value, GST-tagged Rac1 F28L mutant substrate
The campaign covered roughly 340,000 compounds. About 2,100 (0.62%) were called active. These entries were drawn from the full list. Potency and affinity values are given separately.
Give the value in % but do not write % after it.

get_value(item= Cc1ccc(OCC(=O)NNC(=O)C2CC(=O)N(c3ccc4c(c3)OCCO4)C2)cc1 (stereo not given) , readout=inhibition) returns 6.61

get_value(item= COc1cc(/C=C/C(=O)OCC(=O)N2CCN(S(=O)(=O)c3ccc(C)cc3C)CC2)ccc1OC(F)F , readout=inhibition) returns 5.89

get_value(item= O=c1c2cc(F)ccc2sn1-c1ccc(F)cc1 , readout=inhibition) returns 30.6

get_value(item= COc1cc(C(=O)NNC(=O)CNC(=O)C2CCCCC2)ccc1OC(C)C , readout=inhibition) returns 0.59

get_value(item= Cc1noc(NC(=O)c2cccc(Cl)c2Cl)c1C#N , readout=inhibition) returns 6.81
